- Test system: SF-295
- Experiment Summary: NCI tumour cell line growth inhibition, 48 h
Active and inactive are the calls of the source. No stated cut-off is given here; in the data, active = GI50 up to about 1.1 µM and inactive = higher.
Readout Label: GI50

Reference set (2 entries):
Q) Given the entry O=c1[nH]nc(-c2ccccc2)n1/N=C/c1cccnc1 , report its measured GI50.
A) > 100 µM (inactive)

Q) Item: COC(=O)C(=O)C(C(=O)C(=O)Nc1nc2ccc(C)cc2s1)c1nc2ccc([N+](=O)[O-])cc2nc1O (stereo not drawn)
A) > 100 µM (inactive)

Continuing:
Q) Field request: GI50 | item: C/C(=N\Nc1nc2ccccc2o1)c1ccc2ccccc2n1
A) 3.72 µM (inactive)

Q) Item: NS(=O)(=O)c1ccc(NC(=O)c2cccc3cc4ccccc4nc23)cc1
A) 16.3 µM (inactive)

Q) Another molecule to look at: CCOC(=O)C(C)NC(=O)C(C)NC(=O)C(C)NC(=O)C(C)NC(=O)C(C)NC(=O)OCc1ccccc1 (stereo not drawn)
A) > 100 µM (inactive)

Q) Record: [N-]=[N+]=NCC1OCC(O)C(OCc2ccccc2)C1OCc1ccccc1 (stereo not drawn)
A) 79.3 µM (inactive)

Q) Then COc1ccc(C(=O)c2c(-c3ccccc3NC(=O)C(F)(F)F)[nH]c3ccccc23)cc1 ?
A) 12.1 µM (inactive)

Q) Next molecule: CO[C@]12CC(=O)C3(C(C[C@H]4CC5CCC6=CC(=O)CC[C@]6(OC(C)=O)C5C[C@@]43C)C1)C1C[C@H]3[C@@H]4CCC5=CC(=O)CC[C@]5(OC(C)=O)[C@H]4CC[C@]3(C)C12 (stereo partly drawn)
A) > 100 µM (inactive)
